Test system: Plasmodium falciparum
Assay: microbe, parasite or virus in culture
Details: D10, 3 h
Description: Antiplasmodial activity against chloroquine-sensitive Plasmodium falciparum D10 harboring 7G8 pfcrt allele infected in erythrocytes assessed as [3H]hypoxanthine incorporation
endpoint: IC50
Report as: number unit

In: Notebook entry, Plasmodium falciparum assay: IC50 of C[C@H]1[C@@H](O)O[C@@H]2O[C@@]3(C)CC[C@H]4[C@H](C)CC[C@@H]1[C@@]24OO3 [ARTENIMOL] = ?
Out: 0.7 nM

----------
System: Plasmodium falciparum
Test: microbe, parasite or virus in culture
Conditions: 3D7, 3 h
Description: Antiplasmodial activity against chloroquine-sensitive Plasmodium falciparum 3D7 infected in erythrocytes assessed as [3H]hypoxanthine incorporation
endpoint: IC50 (nM)
Provide the reading as a plain figure in nM.

Clc1ccc2c(N3CCN(CCCN4CCN(c5ccnc6cc(Cl)ccc56)CC4)CC3)ccnc2c1 [PIPERAQUINE]; 3.4

In: Which IC50 is listed for C[C@H]1[C@@H](O)O[C@@H]2O[C@@]3(C)CC[C@H]4[C@H](C)CC[C@@H]1[C@@]24OO3 [ARTENIMOL] ?
Out: 0.6
